# target.or.test.system: T1, mStau2 dsRBD1-2 E15A (Mus musculus, UniProt Q8CJ67 8-181, E15A)
# T1 sequence: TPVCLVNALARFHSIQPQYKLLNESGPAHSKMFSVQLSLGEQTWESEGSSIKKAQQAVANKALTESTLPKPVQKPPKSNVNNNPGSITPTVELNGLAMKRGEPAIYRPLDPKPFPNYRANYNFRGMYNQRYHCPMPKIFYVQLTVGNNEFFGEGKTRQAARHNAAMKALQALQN
# method.description: SPR; Hill n 1; SPR: HBS-EP (10 mM HEPES pH 7.4, 150 mM NaCl, 3 mM EDTA, 0.005% P20); EMSA: 5 nM RNA, protein buffer (40 mM Bis-Tris pH 7, 150 mM NaCl, 2 mM DTT presumed), 4% glycerol, 30 ug/mL yeast tRNA, RT; NMR: 150 mM NaCl, 20 mM Na phosphate pH 7.0, 5 mM DTT, 298 K
# assay.conditions: protein: recombinant; label: 5' 32P (EMSA); biotin (SPR); hairpin, 18 bp stem
observable: pKd
pKd here is simply -log10 of the concentration when that concentration is written in mol/L.

Problem: Suppose we examine the binder GGUAUAUACAUGCACAUGCAAUUUGUGUAUGUGUAUGUAUAUA (structured_RNA) [SRS2+5] ; what pKd value has been reported?
Result: 6.88
